# IC50 per entry
Target: Recombinant human TRKA (Homo sapiens (Human), UniProt P04629)
Sequence (P04629 33-796): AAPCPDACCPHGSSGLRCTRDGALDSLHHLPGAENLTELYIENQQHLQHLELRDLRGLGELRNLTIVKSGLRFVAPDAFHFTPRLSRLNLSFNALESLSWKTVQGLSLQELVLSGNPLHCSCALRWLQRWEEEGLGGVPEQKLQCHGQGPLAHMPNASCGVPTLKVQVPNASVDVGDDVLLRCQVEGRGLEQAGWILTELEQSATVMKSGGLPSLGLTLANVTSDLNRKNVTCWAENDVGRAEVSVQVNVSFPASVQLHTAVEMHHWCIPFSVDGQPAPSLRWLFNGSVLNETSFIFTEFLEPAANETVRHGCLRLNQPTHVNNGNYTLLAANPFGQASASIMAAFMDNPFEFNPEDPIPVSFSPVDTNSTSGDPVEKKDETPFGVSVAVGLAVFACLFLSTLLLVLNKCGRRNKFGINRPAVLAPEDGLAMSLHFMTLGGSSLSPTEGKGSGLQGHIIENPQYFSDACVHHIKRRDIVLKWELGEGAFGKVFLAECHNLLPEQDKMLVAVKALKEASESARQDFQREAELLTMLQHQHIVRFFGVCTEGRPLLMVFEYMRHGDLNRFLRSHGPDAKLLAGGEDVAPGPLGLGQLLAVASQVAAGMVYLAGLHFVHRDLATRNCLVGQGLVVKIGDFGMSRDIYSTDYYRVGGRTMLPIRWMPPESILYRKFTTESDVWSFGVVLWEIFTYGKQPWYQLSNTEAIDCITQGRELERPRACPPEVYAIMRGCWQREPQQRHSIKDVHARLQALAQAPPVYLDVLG
Test: In vitro activity test on TRKA kinase (HTRF kinEASE TK)
Assay type: biochemical
Conditions: 14.68 μM ATP, 40 min, room temperature
Measured Property: IC50

[[record]]
compound = "Fc1ccc(F)c([C@H]2C[C@H](F)CN2c2n[nH]c3ncc(-c4cnn(C5CCNCC5)c4)cc23)c1"
measured_property = "IC50"
measurement = "< 1 nM"

[[record]]
compound = "CC(C)(O)Cn1cc(-c2cnc3[nH]nc(N4C[C@@H](F)C[C@@H]4c4cc(F)ccc4F)c3c2)cn1"
measured_property = "IC50"
measurement = "< 1 nM"

[[record]]
compound = "O=C(N[C@H]1CC[C@@H](O)CC1)c1cnc2[nH]nc(N3CCC[C@@H]3c3cc(F)ccc3F)c2c1"
measured_property = "IC50"
measurement = "< 10 nM"

[[record]]
compound = "COC(=O)c1cnc2[nH]nc(N3C[C@@H](F)C[C@@H]3c3cc(F)ccc3F)c2c1"
measured_property = "IC50"
measurement = "< 1 nM"

[[record]]
compound = "Fc1ccc(F)c([C@H]2C[C@H](F)CN2c2n[nH]c3ncc(-c4cnn(CC(F)(F)F)c4)cc23)c1"
measured_property = "IC50"
measurement = "< 1 nM"

[[record]]
compound = "CNC(=O)CC1(O)CCN(C(=O)Nc2cnc3[nH]nc(N4CCC[C@@H]4c4cc(F)ccc4F)c3c2)C1 (stereo partly shown)"
measured_property = "IC50"
measurement = "< 500 nM"

[[record]]
compound = "O=C(NCCCCO)c1cnc2[nH]nc(N3CCC[C@@H]3c3cc(F)ccc3F)c2c1"
measured_property = "IC50"
measurement = "< 10 nM"

[[record]]
compound = "CC1(O)CCN(c2cnc(C(=O)Nc3cnc4[nH]nc(N5C[C@@H](F)C[C@@H]5c5cc(F)ccc5F)c4c3)cn2)C1 (stereo partly shown)"
measured_property = "IC50"
measurement = "< 1 nM"

[[record]]
compound = "NC(=O)c1cnc2[nH]nc(N3C[C@@H](F)C[C@@H]3c3cc(F)ccc3F)c2c1"
measured_property = "IC50"
measurement = "< 10 nM"

[[record]]
compound = "CN(C)CCn1cc(-c2cnc3[nH]nc(N4C[C@@H](F)C[C@@H]4c4cc(F)ccc4F)c3c2)cn1"
measured_property = "IC50"
measurement = "< 1 nM"

[[record]]
compound = "O=C(Nc1cnc2[nH]nc(N3CCC[C@@H]3c3cc(F)ccc3F)c2c1)c1ccc(N2CC[C@H](O)C2)nc1"
measured_property = "IC50"
measurement = "< 50 nM"

[[record]]
compound = "O=C1CC(n2cc(-c3cnc4[nH]nc(N5C[C@@H](F)C[C@@H]5c5cc(F)ccc5F)c4c3)cn2)CCN1 (stereo partly shown)"
measured_property = "IC50"
measurement = "< 10 nM"

[[record]]
compound = "Fc1ccc(F)c([C@H]2C[C@H](F)CN2c2n[nH]c3ncc(-c4cnn(COCc5ccccc5)c4)cc23)c1"
measured_property = "IC50"
measurement = "< 10 nM"

[[record]]
compound = "NNC(=O)c1cnc2[nH]nc(N3C[C@@H](F)C[C@@H]3c3cc(F)ccc3F)c2c1"
measured_property = "IC50"
measurement = "< 1 nM"

[[record]]
compound = "Fc1ccc(F)c([C@H]2C[C@H](F)CN2c2n[nH]c3ncc(-c4cnn(CC(F)F)c4)cc23)c1"
measured_property = "IC50"
measurement = "< 1 nM"

[[record]]
compound = "O=C(NCCO)c1cnc2[nH]nc(N3CCC[C@@H]3c3cc(F)ccc3F)c2c1"
measured_property = "IC50"
measurement = "< 50 nM"


Data provenance is patent US12391687B2.
